Molecular target: B. subtilis GCYH-IB (Bacillus subtilis)
Construct: His6 (cleaved yes); made in house; host or cells: E. coli BL21 (DE3), pET-30 Xa/LIC plasmid pSAB-9-61
Sequence (P94398 1-304): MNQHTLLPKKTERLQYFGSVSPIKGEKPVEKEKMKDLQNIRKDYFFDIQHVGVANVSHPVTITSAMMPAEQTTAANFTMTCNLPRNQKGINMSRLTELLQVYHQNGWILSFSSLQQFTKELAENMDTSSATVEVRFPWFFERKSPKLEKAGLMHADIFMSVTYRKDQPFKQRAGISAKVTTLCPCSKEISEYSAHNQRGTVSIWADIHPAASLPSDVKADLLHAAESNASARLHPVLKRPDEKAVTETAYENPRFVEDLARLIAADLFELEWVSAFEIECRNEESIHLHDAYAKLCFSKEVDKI
Format: biochemical
Details: apoenzyme assayed with specific metal ions over a broad concentration range
metric_name: metal ion supports catalysis

[[record]]
compound = "[Cd+2] [Cd(II)]"
metric_name = "metal ion supports catalysis"
result = "fail to support activity"

[[record]]
compound = "[Mg+2] [Mg(II)]"
metric_name = "metal ion supports catalysis"
result = "catalysis is supported"

[[record]]
compound = "[Ca+2] [Ca(II)]"
metric_name = "metal ion supports catalysis"
result = "fail to support activity"

[[record]]
compound = "[Cu+2] [Cu(II)]"
metric_name = "metal ion supports catalysis"
result = "fail to support activity"

[[record]]
compound = "[Mn+2] [Mn(II)]"
metric_name = "metal ion supports catalysis"
result = "catalysis is supported"

[[record]]
compound = "[Ni+2] [Ni(II)]"
metric_name = "metal ion supports catalysis"
result = "catalysis is supported"

[[record]]
compound = "[Zn+2] [Zn(II)]"
metric_name = "metal ion supports catalysis"
result = "catalysis is supported"

